Values compiled from ChEMBL document CHEMBL2417386.

# System: Plasmodium falciparum
# Procedure Text: Ratio of IC50 for trophozoite stage of Plasmodium falciparum 3D7 infected in RBC after 5 hrs to IC50 for Plasmodium falciparum 3D7 infected in RBC after 48 hrs
# Type: functional
# Ratio IC50 per record follows

Worked examples follow.
{"columns": ["Compound", "Reading"],
 "data": [
  ["Cc1[nH]c2ccccc2c1/C=C/c1cc(N)c2ccccc2[n+]1C.[I-]", 4.3],
  ["CCN(CC)CCCC(C)Nc1cc(/C=C/c2c[nH]c3ccccc23)nc2ccccc12 (stereo not given)", 1.7],
  ["C[n+]1c(/C=C/c2c[nH]c3ccccc23)cc(N)c2ccccc21.[I-]", 5],
  ["CN(C)c1ccc2nc3ccc(N(C)C)cc3[s+]c2c1.[Cl-] [METHYLENE BLUE ANHYDROUS]", 1.5]
]}

Consider the additional compound presented here.
IN: Please report the measured Ratio IC50 for `CC1(C)N=C(N)N=C(N)N1OCCCOc1cc(Cl)c(Cl)cc1Cl`
OUT: 0.9

* * *

Listed here: items and their measured Ratio IC50.
# Test system: Plasmodium falciparum
# Procedure Text: Ratio of IC50 for trophozoite stage of Plasmodium falciparum 3D7 infected in RBC after 5 hrs in presence of 0.2 uM ALLN to IC50 for trophozoite stage of Plasmodium falciparum 3D7 infected in RBC after 5 hrs in absence of ALLN
# Type: functional
Give the figure by itself; no unit, no explanation.

See these solved cases before continuing.
{"columns": ["Molecule", "Reading"],
 "data": [
  ["CC1(C)N=C(N)N=C(N)N1OCCCOc1cc(Cl)c(Cl)cc1Cl", 0.7],
  ["CCN(CC)CCCC(C)Nc1cc(/C=C/c2c[nH]c3ccccc23)nc2ccccc12 (stereo not given)", 1.6],
  ["CN(C)c1ccc2nc3ccc(N(C)C)cc3[s+]c2c1.[Cl-] [METHYLENE BLUE ANHYDROUS]", 2.1],
  ["Cc1[nH]c2ccccc2c1/C=C/c1cc(N)c2ccccc2[n+]1C.[I-]", 1]
]}

IN: Given `C[n+]1c(/C=C/c2c[nH]c3ccccc23)cc(N)c2ccccc21.[I-]` , report its Ratio IC50 on Plasmodium falciparum.
OUT: 1.5

* * *

# System: Plasmodium falciparum
# Procedure Text: Antimalarial activity against Plasmodium falciparum K1 infected in RBC assessed as growth inhibition after 48 hrs by SYBR Green-I fluorescence assay
# Type: functional, organism-based
# Condition Set: K1, 48 h
Observable: pIC50
Give only the number. pIC50 is defined as minus log10 of concentration in molar units.

IN: Quick one: give measured pIC50 for CN(C)c1ccc2nc3ccc(N(C)C)cc3[s+]c2c1.[Cl-] [METHYLENE BLUE ANHYDROUS]
OUT: 8.10

IN: Answer with reported pIC50 of `C[n+]1c(/C=C/c2c[nH]c3cc(F)ccc23)cc(N)c2ccccc21.[I-]`
OUT: 6.85

IN: Read the entry `Nc1cc(/C=C/c2n[nH]c3ccccc23)nc2ccccc12` and write its reported pIC50.
OUT: 6.40

IN: Report pIC50, nothing else, for this molecule: `Nc1cc(CCc2c[nH]c3ccccc23)nc2ccccc12`
OUT: 5.66

IN: Give a short answer stating reported pIC50 for `C[n+]1c(/C=C/c2c[nH]c3ccccc23)cc(N)c2ccccc21.[I-]` .
OUT: 6.92

IN: Supply pIC50 value. Item: `Cc1[nH]c2ccccc2c1/C=C/c1cc(N)c2ccccc2[n+]1C.[I-]`
OUT: 6.64

IN: Could you please provide reported pIC50 for `C[n+]1c(/C=C/c2c[nH]c3ccccc23)cc(N)c2ccc(Cl)cc21` ? Thanks!
OUT: 6.72

* * *

# Tested on: Plasmodium falciparum
# Procedure Text: Antimalarial activity against Plasmodium falciparum 3D7 infected in RBC assessed as growth inhibition after 48 hrs by SYBR Green-I fluorescence assay
# Assay type: functional, organism-based
# Condition Set: 3D7, 48 h
pIC50: −log10 of the molar value.
Mark FALSE for pIC50 values under 7, and TRUE for everything at or above.

IN: Entry `CC1(C)N=C(N)N=C(N)N1OCCCOc1cc(Cl)c(Cl)cc1Cl` : is its pIC50 no less than 7?
OUT: TRUE

IN: Say whether `C[n+]1c(/C=C/c2c[nH]c3ccccc23)cc(N)c2ccc(Cl)cc21` shows pIC50 of 7 or more.
OUT: FALSE

IN: Would you say `C[n+]1c(/C=C/c2c[nH]c3cc(F)ccc23)cc(N)c2ccccc21.[I-]` shows pIC50 at minimum 7?
OUT: FALSE

IN: I'd appreciate it if you could say whether `C[n+]1c(/C=C/c2c[nH]c3ncccc23)cc(N)c2ccccc21.[I-]` has pIC50 at least equal to 7.
OUT: FALSE

IN: Given `Nc1cc(/C=C/c2c[nH]c3ccccc23)nc2ccccc12` , state whether its pIC50 is at least 7.
OUT: FALSE

IN: Test whether the compound CN(C)c1ccc2nc3ccc(N(C)C)cc3[s+]c2c1.[Cl-] [METHYLENE BLUE ANHYDROUS] records pIC50 of 7 or higher.
OUT: TRUE

IN: Record `Cc1cc(N)c2ccccc2[n+]1C` ; criterion: pIC50 no lower than 7. Met?
OUT: FALSE

IN: For this compound, is measured pIC50 7 or higher? `C[n+]1c(/C=C/c2n[nH]c3ccccc23)cc(N)c2ccccc21.[I-]`
OUT: FALSE

* * *

# Procedure Text: Selectivity index, ratio of IC50 for HEK293 cells to IC50 for Plasmodium falciparum 3D7 after 72 hrs
# Type: toxicity, cell-based
# Condition Set: human, read-out: Ratio IC50
Where selectivity ratio at 72 h equals or exceeds 70, the correct label is TRUE; where it does not, the label is FALSE.

Consider the following illustrative entries.
{"columns": ["Compound", "Group"],
 "data": [
  ["CCN(CC)CCCC(C)Nc1cc(/C=C/c2c[nH]c3ccccc23)nc2ccccc12 (configuration not stated)", "TRUE"],
  ["Nc1cc(/C=C/c2c[nH]c3ccccc23)nc2ccccc12", "TRUE"],
  ["C[n+]1c(/C=C/c2c[nH]c3ccccc23)cc(N)c2ccccc21.[I-]", "FALSE"],
  ["C[n+]1c(/C=C/c2c[nH]c3ncccc23)cc(N)c2ccccc21.[I-]", "FALSE"],
  ["Nc1cc(CCc2c[nH]c3ccccc23)nc2ccccc12", "FALSE"],
  ["C[n+]1c(/C=C/c2c[nH]c3cc(F)ccc23)cc(N)c2ccccc21.[I-]", "FALSE"]
]}

IN: Does `C[n+]1c(/C=C/c2c[nH]c3ccccc23)cc(N)c2ccc(Cl)cc21` have a reported selectivity ratio at 72 h of at least 70?
OUT: FALSE

IN: Could you tell me if the measured selectivity ratio at 72 h of `Cc1[nH]c2ccccc2c1/C=C/c1cc(N)c2ccccc2[n+]1C.[I-]` reaches 70 or more?
OUT: FALSE

IN: Check if selectivity ratio at 72 h >= 70 (inclusive). Item: `C[n+]1c(/C=C/c2n[nH]c3ccccc23)cc(N)c2ccccc21.[I-]`
OUT: TRUE

IN: API: above_or_equal(metric=selectivity ratio at 72 h, cutoff=70) for item `CNc1cc(/C=C/c2c(C)[nH]c3ccccc23)[n+](C)c2ccccc12`
OUT: FALSE

IN: Reported selectivity ratio at 72 h reaches at least 70 for `Nc1cc(/C=C/c2n[nH]c3ccccc23)nc2ccccc12` ?
OUT: TRUE

IN: Dear colleague, could you confirm whether `CCCC[n+]1c(/C=C/c2c[nH]c3ccccc23)cc(N)c2ccccc21` has selectivity ratio at 72 h at or above 70?
OUT: FALSE

* * *

Overview of reported Ratio IC50 across a group of compounds:
# System: Plasmodium falciparum
# Procedure Text: Resistant index, ratio of IC50 for Plasmodium falciparum K1 to IC50 for Plasmodium falciparum 3D7
# Type: functional
# answer = number (no unit)

IN: Tell me measured Ratio IC50 for `C[n+]1c(/C=C/c2n[nH]c3ccccc23)cc(N)c2ccccc21.[I-]` please.
OUT: 0.3

IN: For the compound `C[n+]1c(/C=C/c2c[nH]c3cc(F)ccc23)cc(N)c2ccccc21.[I-]` , give its measured Ratio IC50 value.
OUT: 0.3

IN: Give Ratio IC50 for `Cc1[nH]c2ccccc2c1/C=C/c1cc(N)c2ccccc2[n+]1C.[I-]`
OUT: 1.3

* * *

# Tested on: Plasmodium falciparum
# Procedure Text: Gametocytocidal activity against synchronous stage 1 to 3 of transgenic Plasmodium falciparum NF54 gametocyte harboring pfs16 promoter assessed as parasite viability after 72 hrs by luciferase reporter gene assay
# Assay type: functional, organism-based
# Condition Set: NF54, 72 h
Observable: IC50 (nM)
Give your result in nM as a bare value.

Worked cases, IC50 given:
{"columns": ["Item Smiles", "IC50 [nM]"],
 "data": [
  ["C[n+]1c(/C=C/c2c[nH]c3ccccc23)cc(N)c2ccccc21.[I-]", 300],
  ["Nc1cc(/C=C/c2c[nH]c3ccccc23)nc2ccccc12", 370]
]}

IN: Please list IC50 recorded for the compound `Cc1[nH]c2ccccc2c1/C=C/c1cc(N)c2ccccc2[n+]1C.[I-]`
OUT: 350
